Just for reference, paper PMC10397247 is where these values come from.

- study_target: T1, 4H3175-bN
- T1 chain: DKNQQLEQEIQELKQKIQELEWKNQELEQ
- experiment_description: two-hybrid library CCNG1;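 note: natural log of median RNA to DNA barcode read ratio; higher means stronger binding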
result_type: interaction score

| binder | result_type | result |
| --- | --- | --- |
| DKNQQLEQEIQELKQENQELKWEIQELKQ [4H3162-bN] | interaction score | -0.427 |
| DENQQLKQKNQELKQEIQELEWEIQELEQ [4H1985-bN] | interaction score | -2.05 |
| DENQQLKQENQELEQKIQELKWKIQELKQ [4H1710-bN] | interaction score | -0.28 |
| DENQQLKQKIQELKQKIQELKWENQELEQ [4H1899-bN] | interaction score | -0.0673 |
| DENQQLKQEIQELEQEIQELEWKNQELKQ [4H1544-bN] | interaction score | 0.167 |
| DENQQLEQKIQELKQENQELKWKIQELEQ [4H1373-bN] | interaction score | -0.941 |
| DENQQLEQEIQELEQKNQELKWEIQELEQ [4H1081-bN] | interaction score | -0.589 |
| DKNQQLEQEIQELKQKIQELEWKNQELEQ [4H3175-bN] | interaction score | 0.818 |
| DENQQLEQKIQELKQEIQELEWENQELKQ [4H1348-bN] | interaction score | -0.302 |
